Listing of entries alongside the reported apparent KD of MS2 coat protein.
# Tested on: MS2 coat protein
# experiment.notes: apparent KD of MS2 coat protein; higher = weaker reporter binding
# applied.conditions: Eterna round: R107; input ligand: none
readout.name: apparent KD of MS2 coat protein (nM)

{"columns": ["item.sequence", "readout.name", "number"],
 "data": [
  ["AUAACAUGAGGAUCACCCAUGUAAGCUGAAGGAGCGCUGGAAACAGCAGGUAGGUCGCAGCAUGUUUCCACAUGGGUAGGAAACU [(M1)-(M2)-(Arg1)-(Arg2)-(A)'-(M)'-(A)''_Design8]", "apparent KD of MS2 coat protein", 80],
  ["UAUGCACAUGAGGAUCACCCAUGUAUGGAAGGAGCGGUGAAUAAACCAGGUAGGUCGCCAUUGUGAGGGUCAUCUAUGUAAUCGU [Exclusion - Arginine A (Freestyle 4)]", "apparent KD of MS2 coat protein", 85.3],
  ["CUCCUGGGAGCGGCCGCCACUGGAGGCCUCGCGCGACAUGAGGAUCACCCAUGUUGGCCCGGCCUCAGGACCGGGUUCGCGCGAG [Same State - Tryptophan B Attempt #3]", "apparent KD of MS2 coat protein", 12.9],
  ["AAAAGAGGUGGAAGGAGCGGGAGACAUGAGGAUCACCCAUGUGAUGUUACGAAAGGUUCAGCCCAGGUAGGUCGCCAUGUCGAAA [zczzmullin]", "apparent KD of MS2 coat protein", 46.8],
  ["AAACCAAGGGAUGGGUGCCUUGGUAGUGAUACCAGCCUGGAAACAGGCCCUUGGCAGCACAUGAGGAUCACCCAUGUGAAAUAAU [TheoAX 18#OpenEnded]", "apparent KD of MS2 coat protein", 27.7],
  ["ACUAGUUGUGCAGAUACCAGGCACGAGGAUCACCCGUGUUUGGGAUGUUCGCAUCUUCCUGUCCCUUGGCAGCUGUACAUCUAGA [Omei Theo B Exc v9]", "apparent KD of MS2 coat protein", 30.9],
  ["UUUACAUGAGGAUCACCCAUGUGCCAUGAUACCAGACAUGAAAAUGUCCCUUGGCAGCAUGGGUGUAGCGUCGGGAAACCGACGC [Kohoutovice]", "apparent KD of MS2 coat protein", 35],
  ["UUGACAUGAGGAUCACCCAUGUAAACUGAAGGAGCGUCGAAAAUGACAGGUAGGUCGCAGAAUAAUAAAGGUGAUGGUAAAUAUU [Exclusion Arginine AGF1]", "apparent KD of MS2 coat protein", 22.3]
]}

* * *

# Tested on: MS2 coat protein
# experiment.notes: apparent KD of MS2 coat protein; designed switch direction (-1 OFF switch, 1 ON switch): 1; higher = weaker reporter binding
# applied.conditions: input ligand: FMN 200 uM

{"columns": ["item.sequence", "apparent KD of MS2 coat protein (µM)"],
 "data": [
  ["GCGGAACCUGACAUGAGGAUCACCCAUGUUCCGGAAACGGCACAGGAUAUCUGUCCGAAAAGGUCAGAGAAGGGUGGAAACCGC [Fiskers NG3ss - 98] (Eterna round: R96, puzzle: Same State NG 3)", 0.068],
  ["GGUGCAAUAAACGCCUACAUGAGGAUCACCCAUGUAUGUAGGCAGGAUAUCGUAUGCAAAGCAUACGAGAAGGGCUGUAGUACC [Mat - Same State NG 3 - JL Mod - D42] (Eterna round: R96, puzzle: Same State NG 3)", 0.0537],
  ["ACUCAGUACAAUUUAGAUCUACAUGAGGAUCACCCAUGUACUGAGGAUAUCAGCUCGUUUAGAGCUGAGAAGGCAGUUGUACUA [SSNG3/10-A3] (Eterna round: R96, puzzle: Same State NG 3)", 0.108],
  ["AGAUGUUAAUCAGGAUAUGGGCACAUGAGGAUCACCCAUGUAAAUUCGAUACUAUGUGGACACGUCUAGAAGGGAUGGCUAACA [SameState NG2 #83] (Eterna round: R96, puzzle: Same State NG 2)", 0.125],
  ["AACUAACAUGAGGAUCACCCAUGUUGCAGCGGUUGAGGAUAUGUGGGUGAAAAUAGCAUGGCAGAAGGCGAGUGUA [SameState1 Malc#25] (Eterna round: R96, puzzle: Same State 1)", 0.407],
  ["GCACCUCGAUGAGGAUAUACAAGCGGAGAUUACAUGAGGAUCACCCAUGUGUGUCGCUUUCGAUGGUAGAAGGCAUACGAGGCA [Eternabot solution 14] (Eterna round: R96, puzzle: Same State NG 2)", 0.0166],
  ["GUGGCCCAGGCACAGGAUAUGUUUCUCGUAACAUGAGGAUCACCCAUGUGCCUAUGAGAUUGUUUGCAGAAGGGUGCACGCCACG [JL Atiinbe mod 03] (Eterna round: R96, puzzle: Same State 2)", 0.0183],
  ["GACGAGGUGGGAGGAUAUAGCCCGUGGACUGUACCCGAACAUGAGGAUCACCCAUGUCGAGAAACCUAGAAGGCCUACAACGUA [Eternabot solution 11] (Eterna round: R96, puzzle: Same State NG 2)", 0.0168],
  ["AGUCAAGACAUGAGGAUCACCCAUGUUGGGAACAUGGAGGACGAGGAUAUGUGUCGAUAUGUGACGUAGAAGGCGUCAGACAAA [Eternabot solution 33] (Eterna round: R96, puzzle: Same State NG 3)", 0.189]
]}

* * *

# Test system: MS2 coat protein
# experiment.notes: apparent KD of MS2 coat protein; designed switch direction (-1 OFF switch, 1 ON switch): -1; higher = weaker reporter binding
# applied.conditions: input ligand: none
Listing of entries alongside the reported apparent KD of MS2 coat protein.

{"columns": ["item.sequence", "apparent KD of MS2 coat protein, nM"],
 "data": [
  ["AGAUCACAUGAGGAUCACCCAUGUCAGGAUAUCGUCACUGGAGCUUCGGCUCCAGUGACGAGAAGGGACAUAAU [E1/2-A1] (Eterna round: R97, puzzle: Exclusion 1)", 554],
  ["GAGUGUUGAGGAUAUACAUGAGGAUCACCCAUGUGCUUCAGCUAGGAGACUAGCAUUGGUAGAAGGCAAUACUC [Mod of lroppy 6 - Jieux - Exclusion 3] (Eterna round: R97, puzzle: Exclusion 3)", 14.8],
  ["GGAGGUGAGGUAAGGAUAUCCUCCUCGAAAGAGGAGGAGAAGGUACAUGAGGAUCACCCAUGUAAGGAAGGAGG [AK-MS2ROC-r4-Bmoexclusion4-11] (Eterna round: R97, puzzle: Brourd's mod of Exclusion 4)", 54.2]
]}

* * *

# Tested on: K4 kissing-loop RNA reporter;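 further: bound reporter read as fluorescence of individual clusters on recovered sequencing chips by microscopy, with normalized cluster intensities fitted with a binding model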
# experiment.notes: apparent KD of K4 kissing-loop reporter; higher = weaker reporter binding
# applied.conditions: Eterna round: R107; input ligand: none
Tick rule met if apparent KD of K4 kissing-loop reporter is 100 nM or greater. Tick rule not met if apparent KD of K4 kissing-loop reporter is less than 100 nM.

{"columns": ["item.sequence", "classification"],
 "data": [
  ["AGACUACCACACUGUCAAUAGACAGUGGACUAGGAUAUGCUGAUAAGCAGAAGGAGUGAUGUUCCUAGGUAGUCAAUAAAAUAAU [FmnAX 13 G28]", "rule met"],
  ["UAUCUUUGCUGAAGGAGCGAGCAUGUUGGAGUGAUGUUCCGAGCGAGUGAUGUUCGCAUAGCUCAGGUAGGUCGCAGUGGGAGGA [Same State Arginie B GF 16]", "rule met"],
  ["GCCGUAGAUGGAAGGAGCGUGGUGGACUCGUGAAGUGAUGUUUCAAGUCGUUAUGCCCAACCACAGGUAGGUCGCCAUCUACGGC", "rule met"],
  ["GGUGCUGUCUGUGCCGCCCUCCUCGUCCCUCGAGGACCGGUACGGCCGCCACUCGAGUGAUGUUCGGGUAGCGAUCCCUGCUAGC [Bdazzled - #18 Exc. Tryptophan A]", "rule met"],
  ["UACUAUAUUCUGUCGUUUUUAUUAGUUUGUCAGGAUAUCGUUUAUUCGAGAAGGGACACUGUCUAGUGAUGUUAGACAUUUCUUU [#04 K4 FMN A Exclusion]", "rule not met"],
  ["AUUUUUUUGUCAGGAUAUUAGUGUUGGUUUGGUUUGUUAGUGAUGUUGAUAUUUGUUUUAUGUAUUUAAGAAGGGAUUUAGCGGU [wxooemullin]", "rule met"],
  ["GCUAUGGUAGGAAGGAGCGCGGACGAAAUAUAUCGAGUGAUGUUCGAAUAAUUAAAUAAAACGCAGGUAGGUCGCCUACUAUAGC [Arginine B K4 25]", "rule met"],
  ["ACGUCAUCAAAAGGAUAUGCAUCGAAGUGAUGUUUCGUCAUAUCAGUCUGAUUGCAGCAAUUAGGAGCAGAAGGUUUAGUCCGGU [theeternabot_exclusion_KL_FMN_B_11]", "rule not met"],
  ["UGAUAGGAGAGAAGGAGCGGGAGUGAUGUUCCCAAAGAUUGGUCUAGCAAAGCUGGACCCUCCCAGGUAGGUCGCUCUCCUAUCU [KL-XARG-B16]", "rule met"],
  ["UGUACCGAGUCAGGAUAUGGCGUCGAAAGACGAAUCCUAGUGAUGUUAGGGAUCUGCGAAAGCAGUCCAGAAGGGACUUGGUACU [FmnBS 26 #SwitchBubble #StaticStem #DoubleMagnetSystem]", "rule met"],
  ["AGUCCACUCUAAAGAGUGGACCUAAGGGAUACCAGUGAUGUUGGUCACCCUUGGCAGCCCACUGUCAUCGAUAAAGAUGGCAGGA", "rule met"],
  ["CGCUCGAAAAUUAAGUGAGUGAUGUUCACUCGAGGACCGGUACGGCCGCCACUCGUCUUACGUUGAGACACUGCUCGUACUCAUA [theeternabot_exclusion_KL_Trp_A_38]", "rule met"],
  ["ACUCUUGCGUAUGAUACCAGCUUGUACCGCCACAUAUAUUCUAAGAGUUGAGUGAUGUUUAGCCCUUGGCAGCAUACUUGUGCGU [theeternabot_exclusion_KL_Theo_B_42]", "rule met"],
  ["AGGCGCUUAAGUCAGUGAUGUUGAUUAUAUCGAGGACCGGUACGGCCGCCACUCGGCUUUCAUCCGCCAUCGUAGUCCUAAAACC [theeternabot_sameState_KL_Trp_A_25]", "rule met"],
  ["UGGACGUUAUACAAUAAGUAUAACUGGGAUACCAGUGACGAAAGUCACCCUUGGCAGCUCAACUGCCAGUGAUGUUGGUAGUCCA [Astros-Eli-mod#5]", "rule met"],
  ["GAGAUAGCGACGGCCGCCACUAGUGAUGUUAGUGCGGGUAGAUAGAUACUUGAACAGAAAUGACGUAGGACCGGGUCAGAUAGAG [#02 K4 Tryptophan B Exclusion]", "rule met"],
  ["AAAUUCUUUUUUUUAUUUAACUUUUCAGAAGGAGCGUGGUAGUUCACAGGUAGGUCGCUGAAUUUUGGACUAGUGAUGUUAGUUA [JR_SSArginiA_Sub006]", "rule met"],
  ["AAAUCGUUCAGAAGGAGCGUGGUAUAAUCAUUAAUAUUUAUUACGAGUGAUGUUCGUAAUUCACAGGUAGGUCGCUGAUCGAUAA [JR_SSArginiB_Sub006]", "rule not met"],
  ["UGUAUGUGAUUUGAUACCAGACAAGCAGGUGUGACAAGAGUGAUGUUCUUGAUGGUUUGGGUCCCUUGGCAGCAAAUCGCAUACU [KL-SSTheoB16]", "rule met"],
  ["UUGCAAGAGUCGGCCGCCACUCCGGGCCCUAUAAAUGGGCGCAGUGAUGUUGCGGCUAGGCCUCUGAGGACCGGGACUUUGUAGC [Ateusraor]", "rule not met"],
  ["UGACUGGACUGAAGGAGCGAGGACGGUCAUAGACCGAAUUCAGUGAUGUUGAAAAUAAAACCUCAGGUAGGUCGCAGUCUAGUCU [ArgBS 3 #SwitchBubble #StaticStem]", "rule met"]
]}
